The measurements presented in this section are drawn from paper PMC8694169.

Target: HLA-A*24:02 (Homo sapiens, UniProt P04439, D101N/D140Y/D185E/E176V/E190D/F33S/G103R/G107R/I119L/I121M/I306V/K335N/L105A/L180Q/L300P/N151K/N90K/Q86E/Q94H/R106L/R138H/R89G/T104I/T345S/V100E/W191G/Y123F)
Test: cell-based
Type: binding
Conditions: […], mean ± SD, triplicate, repeated twice, ND = not detected, read-out: BL50 (half-maximal binding level, peptide concentration that yields 50% relative binding)
Where no end group is shown, it is not given here.
We begin with a simple list: items and their reported EC50.

sequence_code: SYGADLKSF [pp1a-135]
EC50, µM: 104

sequence_code: TFHLDGEVI [pp1a-1543]
EC50, µM: 100

sequence_code: MFTPLIQPI [pp1a-3030]
EC50, µM: 251

sequence_code: QYGRSGETL [pp1a-96]
EC50, µM: 124

sequence_code: SYLFQHANL [pp1a-1733]
EC50, µM: 3

sequence_code: FYVLGLAAI [pp1a-2338]
EC50, µM: 0.7

sequence_code: NFTIKGSFL [pp1a-3396]
EC50, µM: 134

sequence_code: NFNQHEVLL [pp1a-1137]
EC50, µM: 55.3

sequence_code: AFGLVAEWF [pp1a-2320]
EC50, µM: 135

sequence_code: KFKEGVEFL [pp1a-634]
EC50, µM: 79.6

sequence_code: LFVAAIFYL [pp1a-2781]
EC50, µM: 183

sequence_code: DYGARFYFY [pp1a-1417]
EC50, µM: 16.1

sequence_code: GYVTHGLNL [pp1a-1451]
EC50, µM: 109

sequence_code: AYILFTRFF [pp1a-2330]
EC50, µM: 0.8

sequence_code: VFLFVAAIF [pp1a-2779]
EC50, µM: 8.6

sequence_code: VYEKLKPVL [pp1a-620]
EC50, µM: 264

sequence_code: SYSGQSTQL [pp1a-1515]
EC50, µM: 45.8

sequence_code: LYCIDGALL [pp1a-1845]
EC50, µM: 38.5

sequence_code: MFLARGIVF [pp1a-3752]
EC50, µM: 24.2

sequence_code: MFDAYVNTF [pp1a-2590]
EC50, µM: 7.7

sequence_code: DFVKATCEF [pp1a-335]
EC50, µM: 127
